TGI values by entry
System: K-562 leukemia
TEST_SUMMARY: NCI tumour cell line growth inhibition, 48 h

Would you please look over these solved cases?
- MOLECULE: "CCc1ccc(Cc2ccc(CC)c(NC(=O)C(=O)C3NC(=S)NC3=O)c2CC)c(CC)c1NC(=O)C(=O)C1NC(=S)NC1=O (centres undefined)"
  MEASUREMENT_TARGET: "K-562 leukemia"
  TGI: "> 100 µM"
- MOLECULE: "Cc1cccc2c(NCCN(C)C)c3cccc(C(=O)NCCN(C)C)c3nc12"
  MEASUREMENT_TARGET: "K-562 leukemia"
  TGI: "0.065 µM"
- MOLECULE: "CC(C)C1=CC2=CC[C@@H]3[C@](C)(CCC[C@@]3(C)C(=O)O)[C@H]2CC1"
  MEASUREMENT_TARGET: "K-562 leukemia"
  TGI: "> 100 µM"

Which TGI value is on record for O=C(CC1(O)C(=O)Nc2ccccc21)c1ccc(Cl)cc1Cl (centres undefined) ?
> 100 µM

// repeat for O=S(=O)(O)n1ccnc1 (tested in a mixture with another compound) and report
> 100 µM

// repeat for COc1ccc(-c2oc3c(OC)c(OC)c(OC)c(O)c3c(=O)c2OC)cc1O and report
13.5 µM

// repeat for Cc1c(C(=O)Nc2ccccc2)nnn1-c1ccnc2cc(C(F)(F)F)ccc12 and report
> 100 µM

----------
Tested on: RXF 393 renal
TEST_SUMMARY: NCI tumour cell line growth inhibition, 48 h
Where a SMILES comes first, the peptide text is derived from it. The star is where a group is joined. Cbz = O=C(OCc1ccccc1)*
OBSERVED_PROPERTY: TGI

Would you please look over these solved cases?
- COMPOUND: "CCOC(=O)[C@@]1(C(C)=O)CC(C)=C(C)C[S@]1=O"
  TGI: "> 100 µM"
- COMPOUND: "COC(=O)C(CC(C)C)NC(=O)C(CCCN=C(N)N)NC(=O)OCc1ccccc1 (stereo not drawn) (Cbz-Arg-Leu-OMe; configuration not given here)"
  TGI: "> 100 µM"
- COMPOUND: "O=[N+]([O-])c1ccc(N=Nc2c(Cl)cc(O)cc2Cl)cc1"
  TGI: "13.5 µM"

Which TGI value is on record for C/C(CC(C)(C)N1CC1)=N\NC(=O)Nc1cccc2ccccc12 ?
5.46 µM

// repeat for O=C(Nc1n[nH]c2nc(-c3ccc(O)cc3)c(Br)cc12)C1CC1 and report
5.02 µM

----------
TGI values by entry
System: EKVX NSCLC
TEST_SUMMARY: NCI tumour cell line growth inhibition, 48 h

Would you please look over these solved cases?
- COMPOUND: "COc1ccccc1/C=N/Nc1nnc2c3ccccc3c3ncccc3c2n1"
  MEASUREMENT_TARGET: "EKVX NSCLC"
  OBSERVED_PROPERTY: "TGI"
  VALUE_MEASURED: "> 100 µM"
- COMPOUND: "O=C1OC(c2ccc(Cl)cc2)=N/C1=C\\c1ccccc1"
  MEASUREMENT_TARGET: "EKVX NSCLC"
  OBSERVED_PROPERTY: "TGI"
  VALUE_MEASURED: "> 100 µM"
- COMPOUND: "CCCCCCCC(=O)OC[C@H](C[As](=O)(O)O)OC(=O)CCCCCCC"
  MEASUREMENT_TARGET: "EKVX NSCLC"
  OBSERVED_PROPERTY: "TGI"
  VALUE_MEASURED: "80.7 µM"
- COMPOUND: "CCC[CH2][Sn]1([CH2]CCC)[O]CC[S]1"
  MEASUREMENT_TARGET: "EKVX NSCLC"
  OBSERVED_PROPERTY: "TGI"
  VALUE_MEASURED: "2.1 µM"
- COMPOUND: "CCOC(=O)C(NC(=O)c1cccc(Cl)c1)(Nc1ccc(S(=O)(=O)Nc2cc(C)nc(C)n2)cc1)C(F)(F)F (stereo not given)"
  MEASUREMENT_TARGET: "EKVX NSCLC"
  OBSERVED_PROPERTY: "TGI"
  VALUE_MEASURED: "> 100 µM"

Which TGI value is on record for C/C=C\C(CC(=O)NCCC1CN(C(=O)OCc2ccccc2)c2ccccc21)CC(=O)OC (stereo not given) ?
> 100 µM

// repeat for N#Cc1sc2c(c1OC(=O)c1ccc(Cl)cc1Cl)c(=O)n(-c1ccccc1)c(=S)n2-c1ccccc1 and report
65.1 µM

// repeat for C=CCc1cccc2cc(C(=O)Nc3ccc(C)cc3)c(=N)oc12 and report
> 100 µM

// repeat for O=C1NC(=S)NC(=O)C1=CC1CC1 and report
> 100 µM

// repeat for COc1ccccc1NC(=O)C1=C(C)NC(C)=C(C(=O)Nc2ccccc2OC)C1c1ccccc1Cl and report
> 100 µM

----------
Test system: LOX IMVI melanoma
TEST_SUMMARY: NCI tumour cell line growth inhibition, 48 h
OBSERVED_PROPERTY: TGI

Would you please look over these solved cases?
- COMPOUND: "CCOC(=O)C(NC(=O)c1cccc(Cl)c1)(Nc1ccc(S(=O)(=O)Nc2cc(C)nc(C)n2)cc1)C(F)(F)F (centres undefined)"
  TGI: "> 100 µM"
- COMPOUND: "O=C(O)/C=C/c1ccc(OS(=O)(=O)O)cc1"
  TGI: "> 100 µM"
- COMPOUND: "O=C1NC(=NCc2ccc(F)cc2)N/C1=C\\c1ccccc1Cl"
  TGI: "28.6 µM"
- COMPOUND: "C#CC(C)(C)OCCCCOc1cc(O)c2c(=O)c3ccccc3n(C)c2c1"
  TGI: "> 100 µM"
- COMPOUND: "CC(C)C1=CC2=CC[C@@H]3[C@](C)(CCC[C@@]3(C)C(=O)O)[C@H]2CC1"
  TGI: "> 100 µM"

Which TGI value is on record for O=C1NC(=S)NC(=O)C1=CC1CC1 ?
> 100 µM

// repeat for CC1SC2=NC3=C(c4ccccc4C3=O)C(c3ccccc3Cl)N2C1=O (centres undefined) and report
> 100 µM

// repeat for C/C(=C\C(C[C@](C)(O)C(O)CCC#C[Si](C)(C)C)S(=O)(=O)c1ccccc1)CC/C=C/CO[Si](C)(C)C(C)(C)C (some centres undefined) and report
28.7 µM

// repeat for CC(=O)[CH-]C(C)=O.CC(=O)[CH-]C(C)=O.[Cl-].[O]=[V] and report
44.5 µM

----------
Tested on: UACC-257 melanoma
TEST_SUMMARY: NCI tumour cell line growth inhibition, 48 h; in the data active means GI50 below about 0.43 µM; inactive means the rest
Answer with one of the outcomes given here: 1.0 for active, 0.0 for inactive

- MOLECULE: "COc1ccc(C2CC(c3ccc(OC)cc3O)=NN2c2ccc(S(N)(=O)=O)cc2)cc1 (centres undefined)"
  GROUP_LABEL: 0.0

Per the assay record, what outcome was assigned to COc1ccc(CNCCCN2C(=O)c3ccc4c5c(ccc(c35)C2=O)C(=O)N(CCCNCc2ccc(OC)c(OC)c2OC)C4=O)c(OC)c1OC ?
1.0

// repeat for CC[C@H]1CCC/C=C/[C@@H]2C[C@H](O)C[C@H]2[C@H](O)/C=C/C(=O)O1 and report
1.0

// repeat for C/C(CC(C)(C)N1CC1)=N\NC(=O)Nc1cccc2ccccc12 and report
0.0

// repeat for COC(=O)C1=C(C(=O)ON)[C@@H]2C=C[C@@]1([C@@H](Cc1ccccc1)Nc1ccccc1)O2 and report
0.0

// repeat for COc1cc(NS(C)(=O)=O)ccc1Cc1c2ccccc2nc2ccccc12 and report
0.0

----------
Tested on: SF-295 CNS
TEST_SUMMARY: NCI tumour cell line growth inhibition, 48 h; in the data active means GI50 below about 0.43 µM; inactive means the rest
Answer with one of the outcomes given here: 1 (active), -1 (inactive)

- COMPOUND: "C#CCOC(=O)/C=C/C(=O)Oc1ccc2c(C)cc(=O)oc2c1"
  GROUP_LABEL: -1
- COMPOUND: "COc1cc2c3c(n(CCCn4cncn4)c(=O)c2cc1OC)-c1cc2c(cc1C3=O)OCO2"
  GROUP_LABEL: 1
- COMPOUND: "CCCCC(OC(=O)c1ccc(N)cc1)C(=O)Nc1nc(CC(=O)OCC)cs1 (stereo not given)"
  GROUP_LABEL: -1
- COMPOUND: "O=C(Nc1cccc(C(F)(F)F)c1)c1ccc(NC2=C(Cl)C(=O)N(Cc3ccccc3)C2=O)cc1"
  GROUP_LABEL: -1

Next item in the queue.
Per the assay record, what outcome was assigned to Cc1c[nH]c(=O)n(Cc2nnc(CCC(=O)c3nc4ccccc4[nH]3)o2)c1=O ?
-1

----------
Tested on: EKVX NSCLC
TEST_SUMMARY: NCI tumour cell line growth inhibition, 48 h
OBSERVED_PROPERTY: TGI

Would you please look over these solved cases?
- MOLECULE: "Cc1nc(C)c(N2CCN(S(N)(=O)=O)CC2)c(=O)[nH]1"
  TGI: "> 100 µM"
- MOLECULE: "CN(C)/C=C/c1c2c(nc3ccccc13)C(=O)c1cccnc1C2=O"
  TGI: "22.9 µM"
- MOLECULE: "Nc1ncnc2c1ncn2[C@@H]1O[C@H](COP(=O)(O)OP(=O)(O)OC[C@H]2O[C@@H](OCCCO)[C@H](O)[C@@H]2O)[C@@H](O)[C@H]1O"
  TGI: "> 100 µM"
- MOLECULE: "[N-]=[N+]=Nc1c(-c2ccccc2)c(=O)n(-c2ccccc2)c2ccccc12"
  TGI: "48.8 µM"
- MOLECULE: "COc1cc(NC(C)=O)ccc1C(=O)N/N=C/c1ccco1"
  TGI: "> 100 µM"

Which TGI value is on record for CN(CCNC(=O)c1nn(-c2ccc(Cl)cc2Cl)c2c1Cc1ccccc1-2)CCNC(=O)c1nn(-c2ccc(Cl)cc2Cl)c2c1Cc1ccccc1-2 ?
> 100 µM

// repeat for COc1cc2c3c(n(CCCn4cncn4)c(=O)c2cc1OC)-c1cc2c(cc1C3=O)OCO2 and report
> 100 µM

// repeat for CC(C)(C)OC(=O)N1CC(C)(C)N2C(=O)C3(CCCO3)C12 (stereo not given) and report
> 100 µM

// repeat for COc1ccc2c(=O)c3c([nH]c2c1)OCC3=O and report
> 100 µM

// repeat for O=C(c1ccccc1)N(CCCCNC(=O)C(F)(F)F)CCCNC(=O)C(F)(F)F and report
> 100 µM

// repeat for C/C(CC(C)(C)N1CC1)=N\NC(=O)Nc1cccc2ccccc12 and report
19.9 µM
